Reference source for all entries: ChEMBL document CHEMBL5357052

# System: A549
# experiment summary: Cytotoxicity against human A549 cells assessed as reduction in cell growth incubated for 48 hrs by CCK8 method
# Type: functional
readout kind: CC50 (µM)
Answer with a number only, understood to be in µM.

Some compounds with known CC50 results, for comparison:
# compound, measured target, CC50 (µM)
rows = [
    ("C[C@@H]1CC[C@H]2[C@H](C)[C@H]3CC[C@@H]4[C@@H](C[C@H]5[C@H]4C[C@H](O)[C@H]4C[C@@H](O)CC[C@@]45C)[C@@H]3CN2C1", "A549", 23),
    ("C[C@@H]1CC[C@H]2[C@H](C)[C@H]3CC[C@@H]4[C@@H](C[C@H]5[C@H]4CC(=O)[C@H]4C[C@@H](O)CC[C@@]45C)[C@H]3CN2C1", "A549", 43),
    ("C[C@H]1CC[C@H]2[C@H](C)[C@H]3CC[C@@H]4[C@@H](C[C@H]5[C@H]4CC(=O)[C@H]4C[C@@H](O)CC[C@@]45C)[C@@H]3CN2C1", "A549", 22),
    ("C[C@@H]1CC[C@H]2[C@H](C)[C@H]3CC[C@@H]4[C@@H](C[C@H]5[C@H]4CC(=O)[C@H]4C[C@@H](O)CC[C@@]45C)[C@@H]3C[N+]2([O-])C1 (stereo partly specified)", "A549", 21),
    ("C[C@H]1CC[C@H]2[C@H](C)c3ccc4c(c3CN2C1)C[C@H]1[C@H]4C[C@H](O)[C@H]2C[C@@H](O)CC[C@@]21C", "A549", 34),
]

Proceed to the following item.
What measured CC50 goes with C[C@@H]1CC[C@H]2[C@H](C)[C@H]3CC[C@@H]4[C@@H](C[C@H]5[C@H]4C[C@H](O)[C@H]4C[C@@H](O)CC[C@@]45C)[C@H]3C[N+]2([O-])C1 (stereo partly specified) ? 38
